- procedure-details: LAMP-1 surface exposure blockers, TALL-104 cells – cell-based, flow cytometry, MLPCN library, primary screen (AID 651702)
- condition-details: TALL-104 LAMP-1 surface exposure, at 10 µM, stronger effect = higher value, cells stimulated with thapsigargin and PMA
Out of some 360,000 compounds screened, about 2,400 (0.67%) were called active. The full list was thinned out, with actives kept by preference.
Quick rule for you: inhibition at 20% or higher means Satisfied, lower means Not satisfied.

Example results:
Cn1c(SCc2nc3ccccc3s2)nnc1-c1ccc2c(c1)OCO2 : Not satisfied
CC(C)Cn1c(N)c(C(=O)NCc2cccs2)c2nc3ccccc3nc21 : Satisfied
CC(C)(O)C#Cc1ccc(CN2CCC(CO)(CCc3ccccc3)CC2)cc1 : Not satisfied
CC(C)N1C(=O)c2ccccc2NC(=O)C1C(=O)NCc1cccs1 (stereo unspecified) : Not satisfied
COc1ccccc1N1CCN(c2ncnc3sc(C)c(-c4ccccc4)c23)CC1 : Satisfied

Given the entry CC(C)OC(=O)CC(=O)CC(O)c1cccc([N+](=O)[O-])c1 (stereo unspecified) , answer whether its inhibition meets or surpasses 20%. Not satisfied

----------
- procedure-details: LAMP-1 surface exposure blockers, TALL-104 cells – cell-based, flow cytometry, MLPCN library, primary screen (AID 651702)
- condition-details: TALL-104 LAMP-1 surface exposure, at 10 µM, stronger effect = higher value, cells stimulated with thapsigargin and PMA
In all, about 360,000 compounds went through this assay and about 2,400 (0.67%) were called active. The sample as a whole holds a higher share of actives than the screen did.
Reported inhibition by item:
API: value field is a number in %; no unit string.

Cc1cccc(NC(=O)C2CC(=O)OC23CCCC3)c1 (stereo unspecified) : 3.1

Any idea what inhibition was measured for Cc1ccc2[nH]c(=O)c(-c3nc4c(C)cccn4c3NCc3ccco3)cc2c1 ? 19.3

Repeat for the following compound: Cc1ccc(C(C)C)c(OCc2nnc(SCC(=O)Nc3nccs3)n2C)c1 1.2

Repeat for the following compound: Cc1ccc([N+](=O)[O-])c(OCCCNCC(C)O)c1 (stereo unspecified) 0

Repeat for the following compound: CCCN(CCC)c1nc2c(C)cccn2c(=O)c1/C=C1/SC(=S)N(Cc2ccco2)C1=O 57.2

Repeat for the following compound: COc1ccccc1NS(=O)(=O)c1ccc(C(=O)N2CCN(c3ccccc3O)CC2)cc1 2.1

Repeat for the following compound: COc1ccc(CC(=O)N[C@@H]2c3cc(OC)c(OC)cc3C[C@H]2OCc2ccccc2)cc1 -2.2

Repeat for the following compound: COc1ccc(-c2c(-c3ccc(OC)cc3O)nc(C)nc2C(F)(F)F)cc1 27.6

Repeat for the following compound: COc1ccc(Oc2cn[nH]c2-c2ccc(OC)cc2O)cc1 60.1

Repeat for the following compound: CNc1nc2c(C)cccn2c(=O)c1C=Nc1ccc(OC)cc1 -1.8

Repeat for the following compound: CCNC(=O)COC(=O)CCNC(=O)c1cccc(C)c1 -0.6

----------
Reported inhibition by item:
- procedure-details: LAMP-1 surface exposure blockers, TALL-104 cells – cell-based, flow cytometry, MLPCN library, primary screen (AID 651702)
- condition-details: TALL-104 LAMP-1 surface exposure, at 10 µM, stronger effect = higher value, cells stimulated with thapsigargin and PMA
In all, about 360,000 compounds went through this assay and about 2,400 (0.67%) were called active. Many of the other results were omitted from the sample, so actives are more common in it than they were.
API: value field is a number in %; no unit string.

Here are 5 molecules together with their reported answers.
Cc1nc(-c2ccc(Cl)cc2)sc1C1(C)CC(c2ccccc2F)=NO1 (stereo unspecified) : 5.5
CC(=O)Nc1ccc(NC(=O)CN2CCCC(C)C2)c(Cl)c1 (stereo unspecified) : 1.3
OC(COCC1COc2ccccc2O1)CN1CCN(c2ccc(F)cc2)CC1 (stereo unspecified) : -15.5
CC1CCCN(CC(=O)Nc2cc(Cl)ccc2Oc2ccccc2)C1 (stereo unspecified) : 96.4
COc1ccc(NC(=O)C2=CC(c3ccc(OC)c(OC)c3)=NS(=O)(=O)N2C)cc1 : -5.8

Kindly review the next molecule as well.
Any idea what inhibition was measured for COc1ccc(-c2cc(=O)oc3cc(OC(C)C(=O)NCC4CCC(C(=O)O)CC4)ccc23)cc1 (stereo unspecified) ? 19.5

----------
- procedure-details: LAMP-1 surface exposure blockers, TALL-104 cells – cell-based, flow cytometry, MLPCN library, primary screen (AID 651702)
- condition-details: TALL-104 LAMP-1 surface exposure, at 10 µM, stronger effect = higher value, cells stimulated with thapsigargin and PMA
About 2,400 (0.67%) of roughly 360,000 compounds were called active. The sample holds actives, similar compounds and a random draw of the others, so the mix is not that of the screen.
measured-endpoint: inhibition (%)
API: value field is a number in %; no unit string.

Here are 5 compounds together with their reported answers.
O=C(CCS(=O)(=O)c1ccccc1)NC1CCCC1 : -1.3
Nc1ccn(CC(=O)N2CCN(c3ccccn3)CC2)c(=O)n1 : 6.5
CC1CCN(C(=S)c2cccc([N+](=O)[O-])c2)CC1 : 0.5
Cc1cccc(C)c1NC(=O)CCS(=O)(=O)c1cccc2nsnc12 : -2.7
CCOC(=O)N1CCC(Nc2c(NCCN3CCN(c4cccc(Cl)c4)CC3)c(=O)c2=O)CC1 : 1.5

Any idea what inhibition was measured for O=C(O)C1CCN(c2ccc([N+](=O)[O-])cc2[N+](=O)[O-])CC1 ? -1.4

----------
Reported inhibition by item:
- procedure-details: LAMP-1 surface exposure blockers, TALL-104 cells – cell-based, flow cytometry, MLPCN library, primary screen (AID 651702)
- condition-details: TALL-104 LAMP-1 surface exposure, at 10 µM, stronger effect = higher value, cells stimulated with thapsigargin and PMA
The whole screen tested about 360,000 compounds, of which about 2,400 (0.67%) were called active. Only a selection was taken, and actives are over-represented in it overall.
API: value field is a number in %; no unit string.

Here are 3 molecules together with their reported answers.
Cc1ccccc1NC(=S)N(CCCN1CCOCC1)Cc1cccs1 : 5.8
COc1ccc(C(=O)NCC2CCCO2)cc1S(=O)(=O)NCc1ccc(Cl)cc1 (stereo unspecified) : -5.7
Cc1ccc(NC(=S)N(CCCN2CCCC2)Cc2cccn2Cc2ccc(Cl)cc2)cc1 : 75.2

Any idea what inhibition was measured for Cc1ccc(C)c(NC(=O)CCC(=O)N/N=C2/CC(=O)CC(C)(C)C2)c1 ? 3.3

Repeat for the following molecule: CC1=NCCN1S(=O)(=O)c1ccc(Br)c(C)c1 -1.3

Repeat for the following molecule: CCc1cccc(C)c1NC(=S)N(CCCN1CCN(C)CC1)Cc1cccs1 -1.6

----------
- procedure-details: LAMP-1 surface exposure blockers, TALL-104 cells – cell-based, flow cytometry, MLPCN library, primary screen (AID 651702)
- condition-details: TALL-104 LAMP-1 surface exposure, at 10 µM, stronger effect = higher value, cells stimulated with thapsigargin and PMA
Hit rate of the full screen: of about 360,000 compounds, about 2,400 (0.67%) were called active. Many of the other results were omitted from the sample, so actives are more common in it than they were.
measured-endpoint: inhibition

Any idea what inhibition was measured for O=C(CN1C(=O)/C(=C\c2ccc(C(F)(F)F)cc2)Sc2ccccc21)NCc1ccco1 ? -0.7% (inactive)

Repeat for the following molecule: O=C(CC1C(=O)NCCN1Cc1ccc(-c2ccccc2)cc1)NCC1CCOCC1 (stereo not given) 1.1% (inactive)

----------
- procedure-details: LAMP-1 surface exposure blockers, TALL-104 cells – cell-based, flow cytometry, MLPCN library, primary screen (AID 651702)
- condition-details: TALL-104 LAMP-1 surface exposure, at 10 µM, cells stimulated with thapsigargin and PMA
About 2,400 (0.67%) of roughly 360,000 compounds were called active.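 The calls were made as follows: active = inhibition above about 55% (limit read from the data); inconclusive = no clear call, values can overlap the other calls; inactive = the rest.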 The sample as a whole holds a higher share of actives than the screen did.
Please state which outcome applies, choosing from t (active), f (inactive)

Example results:
COc1cccc(CN(C)CC(=O)Nc2ccccc2C(=O)Nc2ccccc2)c1 : f
Cc1ccccc1C(OCC(O)CN1CCCCC1CCO)c1ccccc1 (configuration not stated) : f

Would you mind telling me which call this test gave COc1cccc(NC(=O)C2CCCN2C(=O)OCc2ccccc2)c1 (configuration not stated) ? f

Repeat for the following compound: CC(Nc1nc(C(F)(F)F)nc2ccccc12)c1cccs1 (configuration not stated) f

Repeat for the following compound: CCNC(=O)C1(C)CCCN(C(=O)c2c(C)noc2C)C1 (configuration not stated) f

Repeat for the following compound: CCCCNC(=O)C[C@@H]1C[C@@]2(C(=O)OC)CC(C)(C)CC=C2N(Cc2ccco2)C1=O f

Repeat for the following compound: COc1cccc(CNc2ncc(-c3ccccc3)n2C)c1 f

Repeat for the following compound: Cc1oc(-c2cccc(Cl)c2)[n+]([O-])c1C f

Repeat for the following compound: C(=C\c1ccccc1)/CSc1nnc(-c2cccnc2)n1Cc1ccco1 f

Repeat for the following compound: Cc1c(NC(=O)c2cc(-c3ccc(Cl)s3)nc3ccccc23)c(=O)n(-c2ccccc2)n1C f

Repeat for the following compound: COc1ccc2c(c1)c(=Cc1ccc(N(C)C)cc1)c1cc(-c3ccccc3)[n+](C)n12 t

Repeat for the following compound: COc1ccccc1C(=O)NCCC(=O)NN1C(=O)NC2(CCCCC2)C1=O f

Repeat for the following compound: COc1cccc(NC(=O)C2c3cc(OC)c(OC)cc3C(=O)N(C)C2c2cccnc2)c1 (configuration not stated) f

Repeat for the following compound: COc1cccc(CNc2nc(C(F)(F)F)nc3ccccc23)c1 t

Repeat for the following compound: C=C(C)CNC(=S)Nc1ccc(S(=O)(=O)Nc2cnc3ccccc3n2)cc1 f

Repeat for the following compound: CCc1ccc(-c2cc(C(=O)NN3CCN(C)CC3)c3ccccc3n2)cc1 f

Repeat for the following compound: CC1CCCN(S(=O)(=O)c2ccc(N(C(=O)c3cnccn3)C(C(=O)NC3CCCCC3)c3cccs3)cc2)C1 (configuration not stated) f
